# measured on: High affinity nerve growth factor receptor (Homo sapiens, UniProt P04629, G667C)
# Sequence (P04629 33-796 G667C limits assumed): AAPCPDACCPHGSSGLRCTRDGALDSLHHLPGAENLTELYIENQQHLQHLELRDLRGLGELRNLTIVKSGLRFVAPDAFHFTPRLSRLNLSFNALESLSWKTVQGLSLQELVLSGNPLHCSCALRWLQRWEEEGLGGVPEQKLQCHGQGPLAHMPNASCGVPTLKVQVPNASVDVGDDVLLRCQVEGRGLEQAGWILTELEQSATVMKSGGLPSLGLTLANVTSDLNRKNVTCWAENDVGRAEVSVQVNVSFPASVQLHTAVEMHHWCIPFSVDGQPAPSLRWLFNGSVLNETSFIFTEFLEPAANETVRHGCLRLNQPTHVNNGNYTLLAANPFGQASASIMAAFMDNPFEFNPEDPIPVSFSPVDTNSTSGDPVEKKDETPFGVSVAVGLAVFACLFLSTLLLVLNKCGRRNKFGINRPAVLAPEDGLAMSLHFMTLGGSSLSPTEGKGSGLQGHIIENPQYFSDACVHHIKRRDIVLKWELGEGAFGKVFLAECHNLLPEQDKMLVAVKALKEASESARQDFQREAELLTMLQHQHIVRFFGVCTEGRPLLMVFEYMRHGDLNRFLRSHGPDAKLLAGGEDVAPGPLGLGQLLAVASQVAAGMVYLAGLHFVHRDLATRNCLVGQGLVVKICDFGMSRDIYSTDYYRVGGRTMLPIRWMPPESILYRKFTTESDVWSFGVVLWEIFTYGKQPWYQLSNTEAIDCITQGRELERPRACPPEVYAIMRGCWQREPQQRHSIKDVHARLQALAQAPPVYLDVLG
# protocol description: Inhibition of TRKA G667C mutant (unknown origin) using Ser/Thr 06 peptide as substrate incubated for 1 hr in presence of 400 uM ATP by FRET based Z'-Lyte assay
measurement type: IC50 (nM)

{"columns": ["structure smiles", "measurement type", "endpoint value"],
 "data": [
  ["Cc1c2cc(cc1C(=O)Nc1cc(CN3CCN(C)CC3)cc(C(F)(F)F)c1)OCCCCC(=O)NCCN(C)c1ccc3ncc(n3n1)C#C2", "IC50", 2.7]
]}

----------
# measured on: Ephrin type-A receptor 7 (Homo sapiens, UniProt Q15375)
# Sequence (Q15375 whole entry): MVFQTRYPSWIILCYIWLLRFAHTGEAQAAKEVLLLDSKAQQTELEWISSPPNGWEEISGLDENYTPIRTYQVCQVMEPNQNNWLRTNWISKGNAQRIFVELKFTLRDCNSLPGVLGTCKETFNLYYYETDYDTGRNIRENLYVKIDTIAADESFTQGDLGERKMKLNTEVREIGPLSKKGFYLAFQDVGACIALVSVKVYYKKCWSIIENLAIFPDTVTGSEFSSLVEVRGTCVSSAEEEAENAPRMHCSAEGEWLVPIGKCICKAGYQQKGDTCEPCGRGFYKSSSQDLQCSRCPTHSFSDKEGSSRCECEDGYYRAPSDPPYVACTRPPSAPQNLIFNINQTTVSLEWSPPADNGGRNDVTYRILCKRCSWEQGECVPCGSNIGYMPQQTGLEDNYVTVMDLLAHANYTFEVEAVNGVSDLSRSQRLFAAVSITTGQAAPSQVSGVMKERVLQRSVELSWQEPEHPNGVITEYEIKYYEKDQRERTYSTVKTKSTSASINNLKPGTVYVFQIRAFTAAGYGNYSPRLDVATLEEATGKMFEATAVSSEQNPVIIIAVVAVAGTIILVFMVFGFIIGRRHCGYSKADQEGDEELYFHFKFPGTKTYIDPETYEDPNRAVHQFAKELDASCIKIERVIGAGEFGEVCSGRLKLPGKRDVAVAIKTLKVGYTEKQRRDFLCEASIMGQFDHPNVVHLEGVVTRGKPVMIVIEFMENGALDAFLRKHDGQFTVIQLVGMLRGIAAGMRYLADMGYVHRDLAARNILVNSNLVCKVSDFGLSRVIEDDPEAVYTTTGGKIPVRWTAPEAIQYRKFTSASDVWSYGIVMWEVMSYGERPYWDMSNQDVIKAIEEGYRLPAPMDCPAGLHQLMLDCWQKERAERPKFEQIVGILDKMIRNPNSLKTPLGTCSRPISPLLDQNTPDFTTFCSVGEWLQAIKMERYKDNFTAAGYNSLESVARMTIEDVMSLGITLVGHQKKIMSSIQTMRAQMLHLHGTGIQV

{"columns": ["structure smiles", "IC50 / µM"],
 "data": [
  ["Cc1cn(-c2cc(NC(=O)c3cc4cc(c3C)C#Cc3cnc5ccc(nn35)N(C)CCNC(=O)CCCCO4)cc(C(F)(F)F)c2)cn1", 0.162]
]}
